Provenance of the data: PubChem BioAssay AID1159580

Experiment: chemical genetic growth profiling, strain panel (AID 1159580);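 further: tested at 20 µM; growth read once vehicle control cultures reached saturation at 30 °C; 1 = growth at the plate median or of vehicle wells; lower values mean less growth of the strain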
Conditions: S. cerevisiae deletion strains, growth OD, locus YML120C, strain ndi1, active compounds read low
About 2,000 (36%) of roughly 5,500 compounds were called active. Another 18% or so got no clear call; they are omitted. Some of the results follow.
Recorded normalized growth by entry

molecule	normalized growth
NCC[C@@H](O)C(=O)N[C@@H]1C[C@H](N)[C@@H](O[C@H]2O[C@H](CN)[C@@H](O)[C@H](O)[C@H]2O)[C@H](O)[C@H]1O[C@H]1O[C@H](CO)[C@@H](O)[C@H](N)C1O (stereo partly drawn)	1.02
Cc1nnc(NS(=O)(=O)c2ccc(N)cc2)s1	0.987
Cc1onc(-c2ccccc2)c1-c1ccc(S(N)(=O)=O)cc1	0.992

----------
Test: chemical genetic growth profiling, strain panel (AID 1159580);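 further: tested at 20 µM; growth read once vehicle control cultures reached saturation at 30 °C; 1 = growth at the plate median or of vehicle wells; lower values mean less growth of the strain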
Conditions: S. cerevisiae deletion strains, growth OD, locus YBR279W, strain paf1, active compounds read low
The campaign covered roughly 5,500 compounds. About 2,000 (36%) were called active. Roughly 18% stayed inconclusive and do not appear here. Some of the results follow.
Rule: normalized growth below 1 gives MET, anything at or above gives NOT MET.

compound	assigned category
NCC[C@@H](O)C(=O)N[C@@H]1C[C@H](N)[C@@H](O[C@H]2O[C@H](CN)[C@@H](O)[C@H](O)[C@H]2O)[C@H](O)[C@H]1O[C@H]1O[C@H](CO)[C@@H](O)[C@H](N)C1O (some centres not stated)	NOT MET
Clc1ccc(C(Cn2ccnc2)OCc2ccsc2Cl)c(Cl)c1 (configuration not stated)	MET
CN1CCC[C@@H]1CCO[C@](C)(c1ccccc1)c1ccc(Cl)cc1	MET

----------
Experiment: chemical genetic growth profiling, strain panel (AID 1159580);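 further: tested at 20 µM; growth read once vehicle control cultures reached saturation at 30 °C; 1 = growth at the plate median or of vehicle wells; lower values mean less growth of the strain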
Details: S. cerevisiae deletion strains, growth OD, locus YLR262C, strain YPT6, active compounds read low
Among all 5,500 compounds or so, about 2,000 (36%) were called active. About 18% were inconclusive and are not listed. This is one part of the list.
Form field: normalized growth (one value per entry).
measured endpoint: normalized growth

> print(dat)
                                    compound  measured.endpoint  quantitative.result
 1                           COc1cscc1C(N)=O  normalized growth                0.998
 2                FC(F)(F)c1cccc(N2CCNCC2)c1  normalized growth                0.991
 3                         NCCCNCCSP(=O)(O)O  normalized growth                0.973
 4  Cc1onc(-c2ccccc2Cl)c1C(=O)N1CCCN2C(=O)c3ccccc3C21 (stereo unspecified)  normalized growth                0.995
 5           O=C1NN(c2ccccc2)C(=S)Nc2ccccc21  normalized growth                0.999
 6  COc1ccc(C(=O)c2sc(Nc3ccccc3)nc2-c2ccccc2)cc1  normalized growth                0.993
 7  C[C@]12C=CC(=O)C=C1CCC1C2[C@@H](O)C[C@@]2(C)C1CC[C@]2(O)C(=O)CO (stereo partly specified)  normalized growth                0.991
 8  CC(=O)OC1CC(O)C(C)(C)C2CC(=O)C3(C)C(CCC4(C)C(c5ccoc5)OC(=O)C5OC543)C12C (stereo unspecified)  normalized growth                 1.02
 9  CCOC(=O)c1ccc(Oc2ccc(Cl)cc2Cl)c([N+](=O)[O-])c1  normalized growth                 1.01
10  NC(=O)N[C@@H]1O[C@H](CO)[C@@H](O)[C@H](O)[C@H]1O  normalized growth                0.981
11                 Nc1ncnc(SCc2ccc(Cl)cc2)n1  normalized growth                0.988
12  COC(=O)/C(C)=C\CC12OC(C)(C)C3CC(C=C4C(=O)c5c(OC)c6c(c(CC=C(C)C)c5OC431)OC(C)(CCC=C(C)C)C=C6)C2=O (stereo unspecified)  normalized growth                0.986
13          Cc1oncc1C(=O)Nc1ccc(C(F)(F)F)cc1  normalized growth                 1.01
14        CC(C)(C)NC(=S)NC1CCN(Cc2ccccc2)CC1  normalized growth                0.985
15             CC(=O)N[C@@H](CCC(=O)O)C(=O)O  normalized growth                0.998
16      O=C1NC2(CCN(Cc3ccccc3)CC2)Oc2ccccc21  normalized growth                0.992
